Test: Apparent permeability across apical to basolateral in human Caco-2 cells
Format: ADME, cell-based
Peptide text beside a SMILES is read from it.
assay-endpoint: Papp A→B (×10⁻⁶ cm/s)
Give bare numbers, in ×10⁻⁶ cm/s.

Query: Provide measured Papp A→B value, entry: CC[C@H](C)[C@@H]1NC(=O)[C@H](Cc2ccc(O)cc2)NC(=O)[C@H](CS)NC(=O)[C@H](CO)NC(=O)[C@H](Cc2ccccc2)NC(=O)CNC(=O)[C@H](CO)NC(=O)[C@H](CO)NC(=O)[C@H](CO)NC(=O)[C@H](CS)NC(=O)[C@H](Cc2ccc(O)cc2)NC(=O)[C@H](CO)NC1=O (cyclo(CSSSGFSCYISY))
Result: 8.16

---

Assay: Stability in simulated gastric fluids at pH 1.6 assessed as half life
Assay type: ADME
Settings: simulated gastric fluid
Peptide text beside a SMILES is read from it.
assay-endpoint: half-life (min)
Answers are plain numbers, in min.

Query: Provide measured half-life value, entry: CC[C@H](C)[C@@H]1NC(=O)[C@H](Cc2ccc(O)cc2)NC(=O)[C@H](CS)NC(=O)[C@H](CO)NC(=O)[C@H](Cc2ccccc2)NC(=O)CNC(=O)[C@H](CO)NC(=O)[C@H](CO)NC(=O)[C@H](CO)NC(=O)[C@H](CS)NC(=O)[C@H](Cc2ccc(O)cc2)NC(=O)[C@H](CO)NC1=O (cyclo(CSSSGFSCYISY))
Result: 522

---

Test: Stability in simulated Intestinal fluids at pH 6.5 assessed as half life
Format: ADME
Conditions: simulated intestinal fluid
Peptide text beside a SMILES is read from it.
assay-endpoint: half-life
A bare number is not enough; add the unit after it.

Query: Provide measured half-life value, entry: CC[C@H](C)[C@@H]1NC(=O)[C@H](Cc2ccc(O)cc2)NC(=O)[C@H](CS)NC(=O)[C@H](CO)NC(=O)[C@H](Cc2ccccc2)NC(=O)CNC(=O)[C@H](CO)NC(=O)[C@H](CO)NC(=O)[C@H](CO)NC(=O)[C@H](CS)NC(=O)[C@H](Cc2ccc(O)cc2)NC(=O)[C@H](CO)NC1=O (cyclo(CSSSGFSCYISY))
Result: 16.4 h

---

Assay: Stability in human plasma assessed as compound remaining incubated for 2 hrs
Assay type: ADME, cell-free
Details: read-out: Stability
Peptide text beside a SMILES is read from it.
assay-endpoint: remaining at 2 h
A bare number is not enough; add the unit after it.

Query: Provide measured remaining at 2 h value, entry: CC[C@H](C)[C@@H]1NC(=O)[C@H](Cc2ccc(O)cc2)NC(=O)[C@H](CS)NC(=O)[C@H](CO)NC(=O)[C@H](Cc2ccccc2)NC(=O)CNC(=O)[C@H](CO)NC(=O)[C@H](CO)NC(=O)[C@H](CO)NC(=O)[C@H](CS)NC(=O)[C@H](Cc2ccc(O)cc2)NC(=O)[C@H](CO)NC1=O (cyclo(CSSSGFSCYISY))
Result: 95.4%

---

Assay: Distribution coefficient, log D of the compound at pH 7.4 by shake flask method
Assay type: physicochemical
Settings: octanol/water
Peptide text beside a SMILES is read from it.
assay-endpoint: logD
Answers are plain numbers.

Query: Provide measured logD value, entry: CC[C@H](C)[C@@H]1NC(=O)[C@H](Cc2ccc(O)cc2)NC(=O)[C@H](CS)NC(=O)[C@H](CO)NC(=O)[C@H](Cc2ccccc2)NC(=O)CNC(=O)[C@H](CO)NC(=O)[C@H](CO)NC(=O)[C@H](CO)NC(=O)[C@H](CS)NC(=O)[C@H](Cc2ccc(O)cc2)NC(=O)[C@H](CO)NC1=O (cyclo(CSSSGFSCYISY))
Result: 3.52

---

Experiment: Stability in rat liver microsomes assessed as half life
Format: ADME, Microsome
Peptide text beside a SMILES is read from it.
assay-endpoint: half-life (h)
One number for each entry, in h.

Query: Provide measured half-life value, entry: CC[C@H](C)[C@@H]1NC(=O)[C@H](Cc2ccc(O)cc2)NC(=O)[C@H](CS)NC(=O)[C@H](CO)NC(=O)[C@H](Cc2ccccc2)NC(=O)CNC(=O)[C@H](CO)NC(=O)[C@H](CO)NC(=O)[C@H](CO)NC(=O)[C@H](CS)NC(=O)[C@H](Cc2ccc(O)cc2)NC(=O)[C@H](CO)NC1=O (cyclo(CSSSGFSCYISY))
Result: 12.4
